- Tested on: YAP/TAZ-TEAD transcription
- protocolSummary: Reporter gene assay for measuring the inhibition of YAP/TAZ-TEAD transcription (TEAD-responsive element luciferase reporter in Hek293T cells)
- Format: cell-based
- conditionInfo: Homo sapiens, HEK-293T, 24 h, Hek293T cells transiently transfected with TEAD-responsive element luciferase reporter; 24 hours incubation
- Procedure: Hek293T cells are cultured in DMEM supplemented with 10% fetal bovine serum, Sodium pyruvate, Sodium bicarbonate, L-glutamine. The cells are harvested and transiently transfected with TEAD-responsive element luciferase reporter. […] The plate was shaken for 10 min at 600 rpm, centrifuged for 1 min at 500 rpm and measured with an Envision reader (PerkinElmer). The amount of relative light units produced by the TEAD reporter is used to calculated percent of inhibition. […]
pIC50: −log10 of the molar value.
Listed below: pIC50 values for each entry.

Check out these entries, answers already filled in.
# molecule, systemTested, pIC50
measured = [
    ("C=CC(=O)NC1Cc2c(CN)cccc2N(c2ccc(C(F)(F)F)cc2)C1 (stereo not drawn) [compound 138]", "YAP/TAZ-TEAD transcription", "> 6.00"),
    ("C=CC(=O)NC1Cc2c(ccnc2N)N(c2ccc(C(F)(F)F)cc2)C1 (stereo not drawn) [compound 146]", "YAP/TAZ-TEAD transcription", "> 6.00"),
    ("O=S1(=O)CCN1C1Cc2ccccc2N(c2ccc(C(F)(F)F)cc2)C1 (stereo not drawn) [compound 050]", "YAP/TAZ-TEAD transcription", "4.70 to 6.00"),
    ("C=CC(=O)NC1Cc2c(Br)cccc2N(c2ccc(C(F)(F)F)cc2)C1 (stereo not drawn) [compound 058]", "YAP/TAZ-TEAD transcription", "> 6.00"),
    ("C=CC(=O)NCC1Cc2ccccc2N(c2ccc(C#N)cc2)C1 (stereo not drawn) [compound 147]", "YAP/TAZ-TEAD transcription", "> 6.00"),
]

State its pIC50 for this molecule: NC1Cc2ccccc2N(c2ccc(C(F)(F)F)cc2)C1 (stereo not drawn) [171 (Int-3)]
4.70 to 6.00

State its pIC50 for this molecule: C=CC(=O)NC1Cc2c(Nc3cccnc3)cccc2N(c2ccc(C(F)(F)F)cc2)C1 (stereo not drawn) [compound 070]
> 6.00

State its pIC50 for this molecule: C=CC(=O)NCC1Cc2ccccc2N(c2ccc(C(=O)NC)cc2)C1 (stereo not drawn) [compound 100]
< 4.70

State its pIC50 for this molecule: CCC(=O)NC1Cc2c(Cc3ccccc3)cccc2N(c2ccc(C(F)(F)F)cc2)C1 (stereo not drawn) [compound 067]
4.70 to 6.00
